Data origin, for the record: patent US7642244B2

# Measured On: Y5R (Homo sapiens)
# Sequence (Q15761 whole entry): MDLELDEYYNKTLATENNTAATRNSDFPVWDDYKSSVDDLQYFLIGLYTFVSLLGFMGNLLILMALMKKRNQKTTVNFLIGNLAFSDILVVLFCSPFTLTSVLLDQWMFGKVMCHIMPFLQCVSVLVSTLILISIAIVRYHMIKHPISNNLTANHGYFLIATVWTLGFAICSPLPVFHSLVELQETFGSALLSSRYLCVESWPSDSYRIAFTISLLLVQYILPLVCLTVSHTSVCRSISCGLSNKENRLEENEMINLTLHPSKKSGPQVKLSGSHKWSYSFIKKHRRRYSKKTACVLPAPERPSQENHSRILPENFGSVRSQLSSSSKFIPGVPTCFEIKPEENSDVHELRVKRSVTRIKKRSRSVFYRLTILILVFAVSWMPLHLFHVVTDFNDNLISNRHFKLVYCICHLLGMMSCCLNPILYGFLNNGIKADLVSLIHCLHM
# Test Details: Calcium flux assay (FLIPR), Y5R
Reported Metric: EC50

Report EC50, nothing else, for this compound: CCCC[C@H](NC(=O)[C@@H](N)[C@@H](C)CC)C(=O)N1CCN(c2ccc3ncn(CC(=O)N[C@@H](CCCNC(=N)N)C(=O)N[C@@H](Cc4c[nH]cn4)C(=O)N[C@@H](Cc4ccc(O)cc4)C(=O)N[C@@H](CC(C)C)C(=O)N[C@@H](CC(N)=O)C(=O)N[C@@H](Cc4c[nH]c5ccccc45)C(=O)N[C@H](C(=O)N[C@H](C(=O)N[C@@H](CCCNC(=N)N)C(=O)N[C@@H](CCC(N)=O)C(=O)N(C)[C@@H](CCCNC(=N)N)C(=O)N[C@@H](Cc4ccc(O)cc4)C(N)=O)[C@@H](C)O)C(C)C)c(=O)c3c2)CC1 [Example 26]
> 5 µM

---

# Measured On: Y1R (Homo sapiens, UniProt P25929)
# Sequence (P25929 whole entry): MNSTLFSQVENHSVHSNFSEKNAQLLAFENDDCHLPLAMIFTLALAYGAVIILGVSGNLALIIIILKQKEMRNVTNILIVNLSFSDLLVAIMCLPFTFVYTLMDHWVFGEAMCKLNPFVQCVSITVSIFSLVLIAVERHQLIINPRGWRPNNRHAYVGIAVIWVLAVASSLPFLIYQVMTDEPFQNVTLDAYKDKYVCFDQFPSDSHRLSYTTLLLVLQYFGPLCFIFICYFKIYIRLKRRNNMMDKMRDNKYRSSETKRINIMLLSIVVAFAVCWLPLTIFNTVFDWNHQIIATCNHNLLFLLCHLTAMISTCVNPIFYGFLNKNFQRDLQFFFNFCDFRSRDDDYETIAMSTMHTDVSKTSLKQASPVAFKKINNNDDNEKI
# Test Details: Calcium flux assay (FLIPR), Y1R
pEC50: −log10 of the molar value.
Recorded pEC50 values for a group of compounds are listed next.

chem_smiles=CC[C@H](C)[C@H](NC(C)=O)C(=O)N[C@@H](CCCCN)C(=O)N1CCN(c2ccc3ncn(CC(=O)N[C@@H](CCCNC(=N)N)C(=O)N[C@@H](Cc4c[nH]cn4)C(=O)N[C@@H](Cc4ccc(O)cc4)C(=O)N[C@@H](CC(C)C)C(=O)N[C@@H](CC(N)=O)C(=O)N[C@@H](Cc4c[nH]c5ccccc45)C(=O)N[C@H](C(=O)N[C@H](C(=O)N[C@@H](CCCNC(=N)N)C(=O)N[C@@H](CCC(N)=O)C(=O)N(C)[C@@H](CCCNC(=N)N)C(=O)N[C@@H](Cc4c(F)cc(O)cc4F)C(N)=O)[C@@H](C)O)C(C)C)c(=O)c3c2)CC1 measured_on="Y1R (Homo sapiens, UniProt P25929)" reported_metric=pEC50 measured_value="< 5.30"

Let me know recorded pEC50 for "CC[C@H](C)[C@H](NC(=O)CC1CCCCC1)C(=O)N[C@@H](CCCCN)C(=O)N1CCN(c2ccc3ncn(CC(=O)N[C@@H](CCCNC(=N)N)C(=O)N[C@@H](Cc4c[nH]cn4)C(=O)N[C@@H](Cc4ccc(O)cc4)C(=O)N[C@@H](CC(C)C)C(=O)N[C@@H](CC(N)=O)C(=O)N[C@@H](Cc4c[nH]c5ccccc45)C(=O)N[C@H](C(=O)N[C@H](C(=O)N[C@@H](CCCNC(=N)N)C(=O)N[C@@H](CCC(N)=O)C(=O)N(C)[C@@H](CCCNC(=N)N)C(=O)N[C@@H](Cc4ccc(O)cc4)C(N)=O)[C@@H](C)O)C(C)C)c(=O)c3c2)CC1" , thanks.
< 5.30

---

# Measured On: Y4R (Homo sapiens, UniProt P50391)
# Sequence (P50391 whole entry): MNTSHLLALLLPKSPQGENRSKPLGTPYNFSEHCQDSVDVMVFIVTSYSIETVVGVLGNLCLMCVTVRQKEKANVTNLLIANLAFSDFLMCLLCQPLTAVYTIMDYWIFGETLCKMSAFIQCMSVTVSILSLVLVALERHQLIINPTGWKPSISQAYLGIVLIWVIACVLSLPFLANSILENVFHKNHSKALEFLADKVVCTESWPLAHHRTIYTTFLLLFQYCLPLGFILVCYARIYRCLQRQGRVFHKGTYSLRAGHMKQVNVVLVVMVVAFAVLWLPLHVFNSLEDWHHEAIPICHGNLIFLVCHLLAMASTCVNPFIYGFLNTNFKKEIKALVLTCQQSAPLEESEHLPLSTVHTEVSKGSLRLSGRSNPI
# Test Details: Calcium flux assay (FLIPR), Y4R
Reported values of EC50 for individual entries

Worked set:
compound="CCCC[C@H](NC(=O)[C@@H](N)[C@@H](C)CC)C(=O)N1CCN(c2ccc3ncn(CC(=O)N[C@@H](CCCNC(=N)N)C(=O)N[C@@H](Cc4c[nH]cn4)C(=O)N[C@@H](Cc4ccc(O)cc4)C(=O)N[C@@H](CC(C)C)C(=O)N[C@@H](CC(N)=O)C(=O)N[C@@H](Cc4c[nH]c5ccccc45)C(=O)N[C@H](C(=O)N[C@H](C(=O)N[C@@H](CCCNC(=N)N)C(=O)N[C@@H](CCC(N)=O)C(=O)N(C)[C@@H](CCCNC(=N)N)C(=O)N[C@@H](Cc4ccc(O)cc4)C(N)=O)[C@@H](C)O)C(C)C)c(=O)c3c2)CC1 [Example 26]" measured_value="> 5 µM"
compound="CC[C@H](C)[C@H](NC(=O)C(C)(C)C)C(=O)N[C@@H](CCCCN)C(=O)N1CCN(c2ccc3ncn(CC(=O)N[C@@H](CCCNC(=N)N)C(=O)N[C@@H](Cc4c[nH]cn4)C(=O)N[C@@H](Cc4ccc(O)cc4)C(=O)N[C@@H](CC(C)C)C(=O)N[C@@H](CC(N)=O)C(=O)N[C@@H](Cc4c[nH]c5ccccc45)C(=O)N[C@H](C(=O)N[C@H](C(=O)N[C@@H](CCCNC(=N)N)C(=O)N[C@@H](CCC(N)=O)C(=O)N(C)[C@@H](CCCNC(=N)N)C(=O)N[C@@H](Cc4ccc(O)cc4)C(N)=O)[C@@H](C)O)C(C)C)c(=O)c3c2)CC1 [Example 30]" measured_value="> 5 µM"

Specify EC50 for CC[C@H](C)[C@H](NC(=O)CC1CCCCC1)C(=O)N[C@@H](CCCCN)C(=O)N1CCN(c2ccc3ncn(CC(=O)N[C@@H](CCCNC(=N)N)C(=O)N[C@@H](Cc4c[nH]cn4)C(=O)N[C@@H](Cc4ccc(O)cc4)C(=O)N[C@@H](CC(C)C)C(=O)N[C@@H](CC(N)=O)C(=O)N[C@@H](Cc4c[nH]c5ccccc45)C(=O)N[C@H](C(=O)N[C@H](C(=O)N[C@@H](CCCNC(=N)N)C(=O)N[C@@H](CCC(N)=O)C(=O)N(C)[C@@H](CCCNC(=N)N)C(=O)N[C@@H](Cc4ccc(O)cc4)C(N)=O)[C@@H](C)O)C(C)C)c(=O)c3c2)CC1 [Example 31] and stop.
> 5 µM
